Below, each of the binders is paired with its reported kon value.
# target of assay: T1, human PD-L1 (construct not stated) (human, UniProt Q9NZQ7 19-239, limits assumed)
# T1 construct: also called B7-H1 (PD-L1); PD-L1 protein
# T1 sequence (Q9NZQ7 19-239 limits assumed): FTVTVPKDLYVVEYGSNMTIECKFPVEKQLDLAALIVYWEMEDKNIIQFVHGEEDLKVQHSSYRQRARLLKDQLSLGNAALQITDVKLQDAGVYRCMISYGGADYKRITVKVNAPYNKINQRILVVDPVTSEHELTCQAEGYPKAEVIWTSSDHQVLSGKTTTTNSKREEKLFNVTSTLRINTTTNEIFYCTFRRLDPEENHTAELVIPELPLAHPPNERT
# protocol: BLI Octet Red 96, affinity ranking
Respond numerically; units are M⁻¹ s⁻¹ and should not be typed.

Please indicate kon recorded for Hu1210-16 (antibody, V domains shown, Hu1210 VH.4a x Vk.1; human gamma 1 / kappa constant domains) VH: EVQLVESGGGLVQPGGSLRLSCAASGFTFSSYDMSWVRQAPGKGLEWVATISDGGGYIYYSDSVKGRFTISRDNAKNSLYLQMNSLRDEDTAVYYCAREFGKRYALDYWGQGTTVTVSS VL: DIQMTQSPSSLSASVGDRVTITCKASQDVTPAVAWYQQKPGKAPKLLIYSTSSRYTGVPSRFSGSGSGTDFTFTISSLQPEDIATYYCQQHYTTPLTFGQGTKLEIK 84100

Please indicate kon recorded for Hu1210-2 (antibody, V domains shown, Hu1210 VH.1a x Vk.1; human gamma 1 / kappa constant domains) VH: EVQLVESGGGLVKPGGSLRLSCAASGFTFSSYDMSWVRQAPGKGLEWVATISDGGGYIYYSDSVKGRFTISRDNAKNSLYLQMNSLRAEDTAVYYCAREFGKRYALDYWGQGTTVTVSS VL: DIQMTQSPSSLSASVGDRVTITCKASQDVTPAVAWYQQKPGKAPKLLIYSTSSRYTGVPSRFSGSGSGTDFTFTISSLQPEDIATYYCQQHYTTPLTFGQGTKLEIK 77800

Please indicate kon recorded for Hu1210-21 (antibody, V domains shown, Hu1210 VH.4a x Vk.1a; human gamma 1 / kappa constant domains) VH: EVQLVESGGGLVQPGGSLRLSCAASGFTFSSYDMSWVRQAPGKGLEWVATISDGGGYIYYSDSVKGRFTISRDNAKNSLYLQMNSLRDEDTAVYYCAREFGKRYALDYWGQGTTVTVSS VL: DIQMTQSPSSLSASVGDRVTITCKASQDVTPAVAWYQQKPGKSPKLLIYSTSSRYTGVPSRFSGSGSGTDFTFTISSLQPEDIATYYCQQHYTTPLTFGQGTKLEIK 93900

Please indicate kon recorded for Hu1210-19 (antibody, V domains shown, Hu1210 VH.3a x Vk.1a; human gamma 1 / kappa constant domains) VH: EVQLLESGGGLVQPGGSLRLSCAASGFTFSSYDMSWVRQAPGKSLEWVATISDGGGYIYYSDSVKGRFTISRDNSKNTLYLQMNSLRAEDTAVYICAREFGKRYALDYWGQGTTVTVSS VL: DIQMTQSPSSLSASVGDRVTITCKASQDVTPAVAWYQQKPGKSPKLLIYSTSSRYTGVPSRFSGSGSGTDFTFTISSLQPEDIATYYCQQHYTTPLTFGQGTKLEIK 90300

Please indicate kon recorded for Hu1210-5 (antibody, V domains shown, Hu1210 VH.2a x Vk.1; human gamma 1 / kappa constant domains) VH: EVQLVESGGGLVKPGGSLRLSCAASGFTFSSYDMSWIRQAPGKGLEWVATISDGGGYIYYSDSVKGRFTISRDNAKNSLYLQMNSLRAEDTAVYYCAREFGKRYALDYWGQGTTVTVSS VL: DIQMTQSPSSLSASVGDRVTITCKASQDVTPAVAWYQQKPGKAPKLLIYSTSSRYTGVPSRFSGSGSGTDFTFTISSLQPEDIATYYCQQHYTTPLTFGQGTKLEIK 79300

Please indicate kon recorded for Hu1210-15 (antibody, V domains shown, Hu1210 VH.4 x Vk.1; human gamma 1 / kappa constant domains) VH: EVQLVESGGGLVQPGGSLRLSCAASGFTFSSYDMSWVRQAPGKGLEWVSTISDGGGYIYYSDSVKGRFTISRDNAKNSLYLQMNSLRDEDTAVYYCAREFGKRYALDYWGQGTTVTVSS VL: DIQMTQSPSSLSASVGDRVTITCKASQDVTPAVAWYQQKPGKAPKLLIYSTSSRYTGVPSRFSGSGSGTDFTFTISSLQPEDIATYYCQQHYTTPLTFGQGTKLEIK 78700

Please indicate kon recorded for Hu1210-17 (antibody, V domains shown, Hu1210 VH.4b x Vk.1; human gamma 1 / kappa constant domains) VH: EVQLVESGGGLVQPGGSLRLSCAASGFTFSSYDMSWVRQAPGKSLEWVATISDGGGYIYYSDSVKGRFTISRDNAKNSLYLQMNSLRDEDTAVYICAREFGKRYALDYWGQGTTVTVSS VL: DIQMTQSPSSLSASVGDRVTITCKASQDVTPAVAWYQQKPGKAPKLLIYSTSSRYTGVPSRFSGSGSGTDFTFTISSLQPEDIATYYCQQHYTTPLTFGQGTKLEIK 81700

Origin of the recorded values: patent US20220363763A1
